Parameter Ki, tested on PKC theta kinase (Homo sapiens, UniProt Q04759), listed per item.
Sequence (Q04759 whole entry): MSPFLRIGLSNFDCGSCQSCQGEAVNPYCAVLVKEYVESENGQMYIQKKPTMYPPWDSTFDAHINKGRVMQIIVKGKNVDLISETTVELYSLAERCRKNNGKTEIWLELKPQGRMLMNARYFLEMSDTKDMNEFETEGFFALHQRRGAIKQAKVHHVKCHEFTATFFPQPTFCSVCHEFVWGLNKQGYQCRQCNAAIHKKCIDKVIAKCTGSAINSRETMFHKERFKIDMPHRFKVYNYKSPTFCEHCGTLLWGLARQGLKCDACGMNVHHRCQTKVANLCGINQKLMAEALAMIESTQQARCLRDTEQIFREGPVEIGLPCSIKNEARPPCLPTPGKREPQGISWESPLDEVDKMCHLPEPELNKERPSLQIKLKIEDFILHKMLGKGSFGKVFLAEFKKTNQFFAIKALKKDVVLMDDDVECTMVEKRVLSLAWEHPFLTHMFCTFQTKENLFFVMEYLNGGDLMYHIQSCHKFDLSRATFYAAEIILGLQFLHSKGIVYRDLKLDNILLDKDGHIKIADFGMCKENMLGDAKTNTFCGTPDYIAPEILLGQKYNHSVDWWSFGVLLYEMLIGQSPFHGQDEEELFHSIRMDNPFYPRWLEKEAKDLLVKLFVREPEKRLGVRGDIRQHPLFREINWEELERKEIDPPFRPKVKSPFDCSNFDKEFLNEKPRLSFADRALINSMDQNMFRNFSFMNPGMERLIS

Examples from the recorded data:
>>> observed_result("Fc1ccc(N2CC3CCNCC3C2)nc1-c1n[nH]c2ncccc12 (stereo not drawn) [Compound 309]")
"< 2800 nM"
>>> observed_result("CC(C)C[C@H]1CN(c2ccc(F)c(-c3n[nH]c4ncccc34)n2)C[C@H](C)N1 [Compound 182]")
"> 700 nM"
>>> observed_result("CC(C)(C)[C@H]1CN(c2ccc(C(F)(F)F)c(-c3n[nH]c4ncccc34)n2)CCN1 [Compound 77]")
"< 500 nM"

(Q) Name the value of Ki reported for CCC(C)(O)C1CN(c2ccc(F)c(-c3n[nH]c4ncccc34)n2)CCN1 (stereo not drawn) [Compound 241] when tested on PKC theta kinase (Homo sapiens, UniProt Q04759).
(A) < 50 nM

(Q) Name the value of Ki reported for NC[C@@H]1CCCN1c1ccc(F)c(-c2n[nH]c3ncccc23)n1 [Compound 355] when tested on PKC theta kinase (Homo sapiens, UniProt Q04759).
(A) > 700 nM

(Q) Name the value of Ki reported for Fc1ccc(N2CCNCC2)nc1-c1n[nH]c2ncccc12 [Compound 88] when tested on PKC theta kinase (Homo sapiens, UniProt Q04759).
(A) < 500 nM

(Q) Name the value of Ki reported for CC(C)(F)C(C)(O)C1CN(c2ccc(F)c(-c3n[nH]c4ncccc34)n2)CCN1 (stereo not drawn) [Compound 249] when tested on PKC theta kinase (Homo sapiens, UniProt Q04759).
(A) < 50 nM

(Q) Name the value of Ki reported for c1cc(-c2n[nH]c3ncccc23)nc(N2CCOCC2)c1 [Compound 27] when tested on PKC theta kinase (Homo sapiens, UniProt Q04759).
(A) > 700 nM

(Q) Name the value of Ki reported for Fc1ccc(N2CCCCC2)nc1-c1n[nH]c2ncccc12 [Compound 266] when tested on PKC theta kinase (Homo sapiens, UniProt Q04759).
(A) > 700 nM

* * *

Items are presented alongside their recorded Ki.
target: PKC delta kinase (Homo sapiens, UniProt Q05655); experiment: PKC delta kinase inhibition, coupled-enzyme (NADH absorbance) assay, Ki; format: biochemical; conditions: 150 μM ATP, 46 nM PKC delta kinase, 30° C.; read-out: Ki PKC delta
Sequence (Q05655 whole entry): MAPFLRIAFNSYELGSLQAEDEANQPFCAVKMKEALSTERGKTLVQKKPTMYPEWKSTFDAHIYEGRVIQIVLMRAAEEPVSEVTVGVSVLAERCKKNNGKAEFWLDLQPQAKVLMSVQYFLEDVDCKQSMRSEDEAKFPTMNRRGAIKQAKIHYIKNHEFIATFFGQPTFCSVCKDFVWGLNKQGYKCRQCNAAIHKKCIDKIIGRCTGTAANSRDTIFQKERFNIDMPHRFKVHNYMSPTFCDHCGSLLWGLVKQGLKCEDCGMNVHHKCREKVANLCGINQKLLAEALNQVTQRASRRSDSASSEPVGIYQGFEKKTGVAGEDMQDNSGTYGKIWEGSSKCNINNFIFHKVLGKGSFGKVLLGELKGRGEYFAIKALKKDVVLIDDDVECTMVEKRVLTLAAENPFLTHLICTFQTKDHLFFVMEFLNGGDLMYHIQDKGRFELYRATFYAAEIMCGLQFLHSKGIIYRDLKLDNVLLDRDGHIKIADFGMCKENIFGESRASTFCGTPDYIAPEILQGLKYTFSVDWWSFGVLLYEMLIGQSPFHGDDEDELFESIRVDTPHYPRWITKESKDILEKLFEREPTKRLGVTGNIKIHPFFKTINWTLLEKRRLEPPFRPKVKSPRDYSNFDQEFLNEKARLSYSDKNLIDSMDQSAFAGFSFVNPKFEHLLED

Examples from the recorded data:
>>> observed_result("CC(C)CC1(CO)CN(c2ccc(F)c(-c3n[nH]c4ncccc34)n2)CCC1N (stereo not shown)")
"< 50 nM"
>>> observed_result("CC(C)CC1CN(c2ccc(C(F)(F)F)c(-c3n[nH]c4ncccc34)n2)CC(CF)N1 (stereo not shown)")
"> 1250 nM"
>>> observed_result("CC(C)(C(N)C1CCCN(c2ccc(F)c(-c3n[nH]c4ncccc34)n2)C1)C(F)(F)F (stereo not shown) [Compound 394]")
"> 1250 nM"

Proceed to the following item.
(Q) Determine from records and report Ki for NCC1CN(c2ccc(C(F)(F)F)c(-c3n[nH]c4ncccc34)n2)C1
(A) > 1250 nM

* * *

molecular target: PKC alpha kinase (Homo sapiens, UniProt P17252)
ENDPOINT_LABEL: Ki

Examples from the recorded data:
>>> observed_result("C=C(F)c1ccc(N2CCN[C@@H](CC(C)C)C2)nc1-c1n[nH]c2ncccc12")
"< 500 nM"
>>> observed_result("OC1(C2CN(c3ccc(F)c(-c4n[nH]c5ncccc45)n3)CCN2)CCC1 (centres unmarked)")
"> 1250 nM"
>>> observed_result("CCC(C)(O)C1CN(c2ccc(F)c(-c3n[nH]c4ncccc34)n2)CCN1 (centres unmarked) [Compound 244]")
"> 1250 nM"
>>> observed_result("NC[C@H]1CCN(c2ccc(F)c(-c3n[nH]c4ncccc34)n2)C1")
"> 1250 nM"
>>> observed_result("OCCC1CCCCN1c1ccc(C(F)(F)F)c(-c2n[nH]c3ncccc23)n1 (centres unmarked)")
"> 1250 nM"

(Q) Name the value of Ki reported for CC(C)C[C@H]1CN(c2ccc(C(F)(F)F)c(-c3n[nH]c4ncc(Br)cc34)n2)CCN1 when tested on PKC alpha kinase (Homo sapiens, UniProt P17252).
(A) < 2800 nM

(Q) Name the value of Ki reported for CC(C)(F)C(C)(O)C1CN(c2ccc(F)c(-c3n[nH]c4ncccc34)n2)CCN1 (centres unmarked) [Compound 248] when tested on PKC alpha kinase (Homo sapiens, UniProt P17252).
(A) < 2800 nM

(Q) Name the value of Ki reported for CC(C)(F)C(N)C1CCCN(c2ccc(F)c(-c3n[nH]c4ncccc34)n2)C1 (centres unmarked) when tested on PKC alpha kinase (Homo sapiens, UniProt P17252).
(A) > 1250 nM

* * *

pKi: −log10 of the molar value.
Parameter pKi, tested on PKC alpha kinase (Homo sapiens), listed per item.

Examples from the recorded data:
>>> observed_result("CC(C)C[C@H]1CN(c2ccnc(-c3n[nH]c4ncccc34)n2)CCN1 [Compound 66]")
"< 5.90"
>>> observed_result("CC(C)(O)[C@@H]1CN(c2cccc(-c3n[nH]c4ncccc34)n2)CCN1 [Compound 176]")
"< 5.90"
>>> observed_result("CC(=O)N1CCN(c2cccc(-c3n[nH]c4ncccc34)n2)CC1 [Compound 20]")
"< 5.90"

(Q) Determine from records and report pKi for CC(C)C(C)(O)C1CN(c2nc(-c3n[nH]c4ncccc34)c(F)cc2F)CCN1 (stereo not shown) [Compound 444]
(A) < 5.90

* * *

Items are presented alongside their recorded pKi.
molecular target: PKC delta kinase (Homo sapiens); assay: PKC delta kinase inhibition, coupled-enzyme (NADH absorbance) assay, Ki; assay type: biochemical; details: 150 μM ATP, 46 nM PKC delta kinase, 30° C.; read-out: Ki PKC delta
pKi: −log10 of the molar value.

Examples from the recorded data:
>>> observed_result("CC(C)CC1CN(c2ccc(F)c(-c3n[nH]c4ncccc34)n2)CCC1CN (centres unmarked)")
"> 6.30"
>>> observed_result("CC(C)C[C@@H]1C[C@H](N)CN(c2ccc(F)c(-c3n[nH]c4ncccc34)n2)C1")
"> 5.55"
>>> observed_result("CC(C)C[C@@]1(F)CN(c2ccc(C(F)(F)F)c(-c3n[nH]c4ncccc34)n2)CC[C@H]1O")
"< 5.90"

(Q) Determine from records and report pKi for Clc1cccc(C2CN(c3cccc(-c4n[nH]c5ncccc45)n3)CCN2)c1 (centres unmarked)
(A) > 5.55

(Q) Determine from records and report pKi for NC[C@H]1CCN(c2ccc(C(F)(F)F)c(-c3n[nH]c4ncccc34)n2)C1
(A) < 5.90

(Q) Determine from records and report pKi for CCC(C)(O)C1CN(c2ccc(F)c(-c3n[nH]c4ncccc34)n2)CCN1 (centres unmarked) [Compound 161]
(A) > 6.30

(Q) Determine from records and report pKi for NC(=O)C1(N2CCCCC2)CCN(c2ccc(C(F)(F)F)c(-c3n[nH]c4ncccc34)n2)CC1
(A) < 5.90

(Q) Determine from records and report pKi for CC(F)(F)CC1CN(c2ccc(F)c(-c3n[nH]c4ncccc34)n2)CCN1 (centres unmarked)
(A) > 6.30

* * *

target: PKC delta kinase (Homo sapiens); experiment: PKC delta kinase inhibition, coupled-enzyme (NADH absorbance) assay, Ki; format: biochemical; details: 150 μM ATP, 46 nM PKC delta kinase, 30° C.; read-out: Ki PKC delta
Items are presented alongside their recorded Ki.

Examples from the recorded data:
>>> observed_result("CC(F)(F)CC1CN(c2ccc(C(F)(F)F)c(-c3n[nH]c4ncccc34)n2)CCN1 (centres unmarked)")
"> 1250 nM"
>>> observed_result("CC(O)(C1CC1)C1CN(c2ccc(F)c(-c3n[nH]c4ncccc34)n2)CCN1 (centres unmarked) [Compound 273]")
"< 2800 nM"
>>> observed_result("C[C@H]1CN(c2ccc(C(F)(F)F)c(-c3n[nH]c4ncccc34)n2)CCN1")
"< 2800 nM"
>>> observed_result("C=C(F)c1ccc(N2CCN[C@@H](CC(C)C)C2)nc1-c1n[nH]c2ncccc12")
"< 500 nM"
>>> observed_result("CC(C)C[C@H]1CC(O)(c2cccc(-c3n[nH]c4ncccc34)n2)CCN1 (some centres unmarked)")
"> 1250 nM"
>>> observed_result("CCC(O)(CC)C1CN(c2cccc(-c3n[nH]c4ncccc34)n2)CCN1 (centres unmarked)")
"< 500 nM"
>>> observed_result("Fc1ccc(C2CN(c3ccc(C(F)(F)F)c(-c4n[nH]c5ncccc45)n3)CCN2)cc1 (centres unmarked)")
"> 1250 nM"

Proceed to the following item.
(Q) Determine from records and report Ki for OC1CCN(c2cccc(-c3n[nH]c4ncccc34)n2)CC1
(A) > 2000 nM

* * *

molecular target: PKC delta kinase (Homo sapiens); assay: PKC delta kinase inhibition, coupled-enzyme (NADH absorbance) assay, Ki; format: biochemical; conditions: 150 μM ATP, 46 nM PKC delta kinase, 30° C.; read-out: Ki PKC delta
pKi: −log10 of the molar value.
ENDPOINT_LABEL: pKi

>>> observed_result("CCC(C)(O)C1CN(c2ccc(F)c(-c3n[nH]c4ncccc34)n2)CCN1 (centres unmarked) [Compound 241]")
"> 6.30"
>>> observed_result("CC1CN(c2cccc(-c3n[nH]c4ncccc34)n2)C(C)CN1 (centres unmarked)")
"< 5.70"
>>> observed_result("Fc1ccc(N2CCCCC2)nc1-c1n[nH]c2ncccc12")
"< 5.90"
>>> observed_result("OC1(C2CN(c3ccc(C(F)(F)F)c(-c4n[nH]c5ncccc45)n3)CCN2)COC1 (centres unmarked)")
"< 5.90"
>>> observed_result("Cc1cccc(C2CN(c3cccc(-c4n[nH]c5ncccc45)n3)CCN2)c1 (centres unmarked)")
"< 5.70"

(Q) Determine from records and report pKi for CC(C)=CC1CN(c2ccc(C(F)(F)F)c(-c3n[nH]c4ncccc34)n2)CCN1 (centres unmarked)
(A) > 5.55

(Q) Determine from records and report pKi for COc1ccccc1C1CN(c2ccc(C(F)(F)F)c(-c3n[nH]c4ncccc34)n2)CCN1 (centres unmarked)
(A) < 5.90

(Q) Determine from records and report pKi for NC1(C2CCCN(c3ccc(F)c(-c4n[nH]c5ncccc45)n3)C2)CCCC1 (centres unmarked)
(A) > 6.30

Attribution: patent US9193722B2
